Where do the numbers come from? From PubChem BioAssay (NCI).

tested on: ACHN renal; experiment: NCI tumour cell line growth inhibition, 48 h

compound	TGI
COC(C(=O)NN)c1ccccc1 (centres undefined)	> 100 µM
Cc1cc(NCCCN(C)C)c2ccc3c(ccc4c(NCCCN(C)C)cc(C)nc43)c2n1	0.744 µM
NC(=O)CN(CC(N)=O)C(N)=O	> 100 µM
C#CC#CC#CC#CC#CC#CC#CC#CCC1OCC(COC(=O)O[C@@H](C(=O)O[C@H]2C[C@@]3(O)[C@@H](OC(=O)c4ccccc4)[C@@H]4[C@]5(OC(C)=O)CO[C@@H]5C[C@H](O)[C@@]4(C)C(=O)[C@H](OC(C)=O)C(=C2C)C3(C)C)[C@@H](NC(=O)c2ccccc2)c2ccccc2)O1 (some centres undefined)	> 33.3 µM
